- test.details: Midazolam permeability of intestinal epithelial cells (apical to basolateral, cell culture insert)
- Assay type: in vitro ADME
- condition: human, cells of Example 4; scaling factor x = 5; read-out: Apparent permeability coefficient after correction
measured.parameter: Papp at 60 min, 10 μmol/L (×10⁻⁶ cm/s)
Kindly answer with a numeric value in ×10⁻⁶ cm/s, unit omitted.

Quick note, Papp at 60 min, 10 μmol/L for Cc1ncc2n1-c1ccc(Cl)cc1C(c1ccccc1F)=NC2 landed at 1.9

###

- test.details: Midazolam permeability of intestinal epithelial cells (apical to basolateral, cell culture insert)
- Type: in vitro ADME
- condition: human, cells of Example 2; 10 μmol/L midazolam apical pH 6.5, basolateral pH 7.4, 37° C., 60 minutes; read-out: Apparent permeability coefficient
measured.parameter: Papp A→B at 60 min, 10 μmol/L (×10⁻⁶ cm/s)
Kindly answer with a numeric value in ×10⁻⁶ cm/s, unit omitted.

Quick note, Papp A→B at 60 min, 10 μmol/L for Cc1ncc2n1-c1ccc(Cl)cc1C(c1ccccc1F)=NC2 landed at 32
